Experiment: Approximate solubility of crystals of Form A at room temperature
Format: physicochemical
Details: 25 °C, organic solvent or mixture, thermodynamic from solid; THF, room temperature
VALUE TYPE: solubility

Using the record for C[C@H](NC(=O)Cn1cnc2cccc(C#N)c21)c1ccc(C(C)(C)C#N)cc1 [Form A] , report its solubility. > 40 mg/mL

###

Test: Approximate solubility of crystals of Form A at room temperature
Format: physicochemical
Conditions: 25 °C, organic solvent or mixture, thermodynamic from solid; ACN, room temperature
VALUE TYPE: solubility

GET /values?readout=solubility&item= C[C@H](NC(=O)Cn1cnc2cccc(C#N)c21)c1ccc(C(C)(C)C#N)cc1 [Form A] > 40 mg/mL

Ref: patent US20220089550A1
